Origin of values: paper PMC4624675

- tgt: C-terminal Tandem UBL domain of human USP7 (TUD^USP7), wild type (human)
- Sequence (chain, as listed by the source): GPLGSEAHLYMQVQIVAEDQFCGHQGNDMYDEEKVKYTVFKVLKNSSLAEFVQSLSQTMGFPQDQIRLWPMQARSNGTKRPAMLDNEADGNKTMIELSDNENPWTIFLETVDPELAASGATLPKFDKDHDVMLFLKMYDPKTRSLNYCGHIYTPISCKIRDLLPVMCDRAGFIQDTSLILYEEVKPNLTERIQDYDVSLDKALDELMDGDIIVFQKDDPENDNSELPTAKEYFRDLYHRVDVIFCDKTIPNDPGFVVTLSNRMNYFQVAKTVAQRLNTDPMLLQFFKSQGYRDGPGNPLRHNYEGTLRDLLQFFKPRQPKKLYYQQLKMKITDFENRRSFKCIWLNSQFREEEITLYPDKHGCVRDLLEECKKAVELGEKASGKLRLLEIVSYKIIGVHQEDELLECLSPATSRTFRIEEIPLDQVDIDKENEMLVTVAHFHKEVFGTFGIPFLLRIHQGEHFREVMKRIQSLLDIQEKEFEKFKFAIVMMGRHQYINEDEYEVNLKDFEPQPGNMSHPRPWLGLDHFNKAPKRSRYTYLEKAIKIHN
- procedure-summary: ITC
reported-metric: Kd
Enter the number, and then the unit.

KGKGKGKGKGKP [KG-Linker of DNMT1 (GST pull-down bait)] : 3720 nM
SGPRGPRKCARKTRHAETSGA [GST-tagged ICP0 (613–633), wild type] : 270 nM

Quick one: Kd for TGKGKWKRKSAGGGPSRAGSPRRTSKKTKVEPY [UHRF1 (642–674) (GST pull-down bait)] ?
1540 nM
